Tested on: T cell lines obtained from HDM allergic individuals and non-allergics
ASSAY_TEXT: In vitro T cell proliferation test in T cell lines (Example 3)
Type: cell-based, human
MEASUREMENT_SETUP: T cell lines from HDM allergic individuals (n=30); 0.5 or 2 ug/ml; 72 h
Listed here are molecules together with their documented % responders of in-vitro T cell proliferation test, Allergic.

Record excerpt, results attached:
Derf2: major house dust mite allergen, group 2, Dermatophagoides farinae; control (protein, UniProt Q00855 18-146, looked up) Mite group 2 allergen Der f 2: DQVDVKDCANNEIKKVMVDGCHGSDPCIIHRGKPFTLEALFDANQNTKTAKIEIKASLDGLEIDVPGIDTNACHFMKCPLVKGQQYDIKYTWNVPKIAPKSENVVVTVKLIGDNGVLACAIATHGKIRD :: 67%
A016: house dust mite protein; SEQ ID NO: 28 (Der f), 29 (Der p) (protein) MVKIGINGFGRIGRLVLRAAIKKGVEVAAINDPFLDVKYMVYMFKFDSTHGRYQGEVKEEGGLLVVDGQKIQVFQERNPAEIPWGKVGADYVVESTGVFTTIEKAKAHLAGGAKKVIISAPSADAPMYVMGVNHDKYDPKQQIISNASCTTNCLAPLAKVINDKFGIENGLMTTVHAITATQKTVDGPSGKLWRDGRGAGQNIIPASTGAAKAVGKVIPELNGKLTGMALRVPVPDVSVVDLTVTLKNPASYDEIKAAVKAAAESDHWKGILEYTDEEVVSSDFISDTHSSIFDAKAGIALTPTFVKLIAWYDNEFGYSNRVVDLIKYVASK :: 7%
A019: house dust mite protein; SEQ ID NO: 1 (Der f), 4 (Der p), 315 (Blo t) (protein) QVYCNGAAIVSAARSQIGVPYSWGGGGIHGKSRGIGEGANTVGFDCSGLAQYSVYQGTHKVLARVASGQYSDPKCHHVAYGSHQPGDLVFFGNPIHHVGIVSAHGRMINAPHTGTNVREENIWSDHIANVARCW :: 39%

Enquiry: Fill in: % responders of in-vitro T cell proliferation test, Allergic of A023: house dust mite protein; SEQ ID NO: 23 (Der f), 24 (Der p) (protein) DPVQQRPTLRGVTVRVGPFVKENNGKFEGFIPDLVQAISEKVGFDYTLYLSPDGRYGNVISDGNVTGMIGEVYNKKADFAAADLTMTEARENYITFTEPFMINQLAALIRREDAEGLNTLEDLAKAQETFPKRKRIVLGTLRNGATNYFLSKSDDPLAKKIYEQIKADDQSVVKSISEGVERVDKQGGYAFIMESASAEHEIANNCKLTMLLDWRNLFPRKYAFALPKDSPYLEHFNNAIKQLNSEGKIAELRRKYWANNCAENKTKDDKN is ___
Return: 21%

Enquiry: Fill in: % responders of in-vitro T cell proliferation test, Allergic of A025: house dust mite protein; SEQ ID NO: 17 (Der f), 18 (Der p) (protein) QSLFVDYNDYSCGSSQNETNELIQEFKIFKKNINGNENFKKINDFIEKARLFRDNAAKQMLEIDQQLLTLNVIQISQRIKLENNKIQCEKLTKFSELLSMQLLAYEVGMFEFAEEIDPNIDFDRKMKNFLDETSRLFNLAEFEKLEKKFRNATSIEKLKNYIDGELVALNDYINEFLKDIIMSEFTVQSRYYLNFSIEDQVQIDSTLMTFSALKILLNDLKDYLEHLDN is ___
Return: 0%
